- Assay type: in vivo, human
- condition_info: male, human, serum, inhaled or intranasal, 100 IU
parameter: Cmax (ng/mL)
A number alone suffices; assume ng/mL.

Please report the measured Cmax for CC[C@H](C)[C@@H]1NC(=O)[C@H](Cc2ccc(O)cc2)NC(=O)[C@@H](N)CSSC[C@@H](C(=O)N2CCC[C@H]2C(=O)N[C@@H](CC(C)C)C(=O)NCC(N)=O)NC(=O)[C@H](CC(N)=O)NC(=O)[C@H](CCC(N)=O)NC1=O 0.08
